- experimentSummary: Fraction unbound in Hartley guinea pig plasma
- Type: ADME, cell-free, Cavia porcellus
readoutType: fraction unbound
Lab note: jot the number down without any unit.

Req: Request the reported fraction unbound associated with Cc1cn(-c2ccc3n(c2=O)CCN(CCOc2ccc(Cl)cc2C(F)(F)F)C3=O)cn1
Resp: 0.07

###

- Tested on: MDR1 (human)
- experimentSummary: Permeability from apical to basolateral side in MDCK cells expressing human MDR
- Assay type: ADME, cell-based, Canis lupus familiaris
- condition: dog, read-out: permeability
Listed below: Papp A→B values for each entry.
The response must be a number in ×10⁻⁶ cm/s with no trailing unit.

Req: Request the reported Papp A→B associated with Cc1cn(-c2ccc3n(c2=O)CCN(CCOc2ccc(Cl)cc2C(F)(F)F)C3=O)cn1
Resp: 5.8

Req: Request the reported Papp A→B associated with Cc1cn(-c2ccc3n(c2=O)CCN(CCOc2ccc(F)cc2C(F)(F)F)C3=O)cn1
Resp: 13.1

###

- experimentSummary: Clearance in rat at 1 mg/kg, iv
- Type: ADME, organism-based
- Parameters: dose 1 mg/kg, route intravenous
- condition: in vivo
Listed below: clearance values for each entry.
The response must be a number in mL/min/kg with no trailing unit.

smilesInput: Cc1cn(-c2ccc3n(c2=O)CCN(CCOc2ccc(F)cc2C(F)(F)F)C3=O)cn1
readoutType: clearance
reportedResult: 14.3

Req: Request the reported clearance associated with Cc1cn(-c2ccc3n(c2=O)CCN(CCOc2ccc(Cl)cc2C(F)(F)F)C3=O)cn1
Resp: 1.41

###

- experimentSummary: Drug uptake in Hartley guinea pig brain at 10 mg/kg, po after 4 hrs post dosing
- Format: ADME, organism-based, Cavia porcellus
- Parameters: dose 10 mg/kg, route oral
- condition: read-out: Drug uptake
readoutType: concentration at 4 h (nM)
The response must be a number in nM with no trailing unit.

Req: Request the reported concentration at 4 h associated with Cc1cn(-c2ccc3n(c2=O)CCN(CCOc2ccc(Cl)cc2C(F)(F)F)C3=O)cn1
Resp: 2910

###

- experimentSummary: Apparent intrinsic clearance in rat liver microsomes
- Format: ADME
- condition: read-out: CLH(app)
readoutType: CLint scaled (mL/min/kg)
The response must be a number in mL/min/kg with no trailing unit.

For orientation, consider the following solved cases.
smilesInput: Cc1cn(-c2ccc3n(c2=O)CCN(CC2(c4ccc(Cl)cc4)CC2)C3=O)cn1
unitsText: mL/min/kg
reportedResult: 482

smilesInput: Cc1cn(-c2ccc3n(c2=O)CCN(CCOc2ccc(Cl)cc2C(F)(F)F)C3=O)cn1
unitsText: mL/min/kg
reportedResult: 47.6

smilesInput: Cc1cn(-c2ccc3n(c2=O)CCN(CCOc2cccc4ccc(F)cc24)C3=O)cn1
unitsText: mL/min/kg
reportedResult: 469

Turning now to a further molecule:
Req: Request the reported CLint scaled associated with Cc1cn(-c2ccc3n(c2=O)CCN(CCOc2ccccc2Cl)C3=O)cn1
Resp: 117

###

Listed below: half-life values for each entry.
- experimentSummary: Half life in rat at 1 mg/kg, iv
- Format: ADME, organism-based
- Set-up: dose 1 mg/kg, route intravenous
- condition: in vivo
The response must be a number in h with no trailing unit.

smilesInput: Cc1cn(-c2ccc3n(c2=O)CCN(CCOc2ccc(Cl)cc2C(F)(F)F)C3=O)cn1
half-life, h: 6.88

Turning now to a further compound:
Req: Request the reported half-life associated with Cc1cn(-c2ccc3n(c2=O)CCN(CCOc2ccc(F)cc2C(F)(F)F)C3=O)cn1
Resp: 2.09

Where these numbers come from: ChEMBL document CHEMBL3124856
